# system-under-test: T1, OX40 on OX40 over-expressed cells (UniProt P43489 29-277)
# T1 construct: whole, on cells; human implied; also called OX40 expressed on the surface of OX40 expressing cell
# T1 sequence (looked up): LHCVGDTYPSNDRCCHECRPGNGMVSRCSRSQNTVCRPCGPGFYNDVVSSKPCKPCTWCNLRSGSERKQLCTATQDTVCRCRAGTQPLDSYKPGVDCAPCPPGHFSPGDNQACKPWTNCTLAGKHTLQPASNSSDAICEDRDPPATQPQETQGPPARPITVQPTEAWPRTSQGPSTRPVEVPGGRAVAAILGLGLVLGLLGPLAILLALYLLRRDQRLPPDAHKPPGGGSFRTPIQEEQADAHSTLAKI
# protocol-description: flow cytometry, supernatant on OX40 over-expressed cells
attribute-measured: Y586 channel PE fluorescence value
Give your answer as a number; write no unit.

Please review the entries below; each comes with its answer.
binder | experimental-value
23C4-1-5 (antibody, V domains shown, hybridoma antibody, tested as culture supernatant) VH: QVQLQESGPGLVKPSGTLSLTCAVSGGSISSSNWWSWVRQPPGKGLEWIGEIYHSGSTTYNPSLKSRVTISVDKSKSQISLKLTSVTAADTAVYYCARGDVLLWFGGRGTLVTVSS VL: EIVLTQSPGTLSLSPGERASLSCRASQSVSSNYLAWYQQKPGQTPRLLIYGASIRATGIPDRFSGSGSGTDFTLIISRLEPEDFAVYYCQQYSSSPITFGQGTRLEIKR | 63900
29B8-3 (antibody, V domains shown, hybridoma antibody, tested as culture supernatant) VH: QVQLQESGPGLVKPSGTLSLTCAVSGVSISSSNWWSWVRQPPGKGLEWIGEIYHSGNTNYNPSLKSRVTISVDKSKNQFSLKLSSVTAADTAVYYCAETSTITTNYWGQGTLVTVSS VL: DIQMTQSPSSLSASVGDRVTITCRASQTISSYLNWYQQKPGKAPKLLIYAASSLQSGVPSRFSGSESGTDFTLTISSLQPEDFATYYCQQTYSIPITFGQGTRLEIKR | 388000

Moving on to another binder below.
INPUT: Quick one: Y586 channel PE fluorescence value of 20G6-7-1 (antibody, V domains shown, hybridoma antibody, tested as culture supernatant) VH: QVQLQESGPGLVKPSGTLSLTCAVSGGSISSSNWWSWVRQPPGKGLEWIGEIYHSGNTNYNPSLKSRVTISVDKSKNQFSLKLSSVTAADTAVYYCARGGTTFDYWGQGTLVTVSS VL: EIVLMQYPGTLSLSSGERATLSCRASQSVSSRYLAWYQQKPGQAPRLLIYGASNRASGMPDRFSGSGSGTEFTLTISSLEPEDFAMYYCQQYGSSPITFGQGTRVEIKR ?
OUTPUT: 352000
